Tested on: MOLT-4
Assay name: NCI tumour cell line growth inhibition, 48 h
Calls of active or inactive are those of the source. Cut-off read from the data, not from the text of the source: active = GI50 up to about 1.1 µM and inactive = higher. Starred links: 1 amine or outer side, 2 acyl side, 3 side chain; linkers in the order of their positions; H or OH if unused. Positions of bridges follow the written chain, without caps; N, C: chain ends. Non-standard residues stand in square brackets, D forms with d. Residues, ends and D or L forms follow the SMILES beside them. ξ: configuration not given here. X37 = CC[C@H](C)[C@@H](N[*:1])[C@@H](O)CC(=O)O[C@H](C(=O)[C@H](C)C(=O)[*:2])C(C)C; NMeY = CN[C@@H](Cc1ccc(O)cc1)C(=O)O; dNMeL = CN[C@H](CC(C)C)C(=O)O; ξΔPro = O=C(O)C1C=CCN1
Labels: label 1 = active, label 0 = inactive

- Compound: "N#CC(NCCc1ccccc1)c1ccc(C(C#N)NCCc2ccccc2)cc1 (configuration not stated)"
  Classification: "label 0"
- Compound: "C[Si](C)(C)/N=C1\\N2C(=NC1(C(F)(F)F)C(F)(F)F)Sc1ccccc12"
  Classification: "label 0"
- Compound: "Cc1cc(C)c2c(c1)CC1(Cc3c(C)ccc(C)c3C1=O)C2=O (configuration not stated)"
  Classification: "label 0"
- Compound: "CCCSc1ccc2[nH]c(N3C(=O)/C(=C/c4ccc(O)c(OC)c4)N=C3c3ccccc3)cc2c1"
  Classification: "label 0"
- Compound: "CC(C)[C@](O)(C(=O)OCC1=CC[N+]2([O-])CC[C@@H](O)[C@@H]12)[C@H](C)O (some centres not stated) [INDICINE N-OXIDE]"
  Classification: "label 0"
- Compound: "CC[C@H](C)[C@H]1NC(=O)[C@@H](NC(=O)[C@@H](CC(C)C)N(C)C(=O)C2C=CCN2)[C@@H](C)OC(=O)[C@H](Cc2ccc(OC)cc2)N(C)C(=O)[C@@H]2CCCN2C(=O)[C@H](CC(C)C)NC(=O)[C@@H](C)C(=O)[C@H](C(C)C)OC(=O)C[C@@H]1O (some centres not stated) (H-[ξΔPro][dNMeL]T[X37]LP[NMeY](Me); ester 3-C)"
  Classification: "label 1"
- Compound: "COC(=O)C1C(OC(=O)C(Cl)(c2ccccc2)c2ccccc2)CC2CCC1N2C (configuration not stated)"
  Classification: "label 0"
- Compound: "CC(OC(C)(C)C)[C@H](NC(=O)OCc1ccccc1)C(=O)NC(OCc1ccccc1)[C@H]1COC(C)(C)O1 (some centres not stated)"
  Classification: "label 0"
- Compound: "CC1(C)C(=O)/C=C\\C(=O)C(C)(C)C2=CC=C(O2)C(C)(C)C(=O)/C=C\\C(=O)C(C)(C)C2=CC=C1O2"
  Classification: "label 0"
- Compound: "O=C(O)c1cc(=O)c2[nH]c3ccccc3c2s1"
  Classification: "label 0"
- Compound: "O=C(C(=O)N1CCc2ccccc21)c1c[nH]c2ccccc12"
  Classification: "label 0"
- Compound: "COc1ccc2cccc(C(=N)c3ccc(C)c4c3CCC4)c2c1"
  Classification: "label 0"
- Compound: "CC(=O)c1ccc2c(c1)oc(=O)n2CCN(C)C"
  Classification: "label 0"
- Compound: "Cc1nn(-c2ccccc2)c2c1C(c1ccc(Cl)cc1)NC(=S)N2 (configuration not stated)"
  Classification: "label 0"
- Compound: "CCC1CN2CCc3cc(OC)c(OC)cc3C2CC1CC1c2cc(OC)c(OC)cc2CCN1C(=O)C(N)Cc1ccccc1.[O-][Cl+3]([O-])([O-])O (configuration not stated)"
  Classification: "label 1"
- Compound: "Cc1ccc(-c2c(C#N)c(S)n(NS(=O)(=O)c3ccccc3)c(=O)c2C#N)cc1"
  Classification: "label 0"
- Compound: "O=[N+]([O-])C1(C2([N+](=O)[O-])CCCC2)CCCC1"
  Classification: "label 0"
